- assayed-target: hGcgR (Homo sapiens, UniProt P47871)
- Sequence (P47871 26-477): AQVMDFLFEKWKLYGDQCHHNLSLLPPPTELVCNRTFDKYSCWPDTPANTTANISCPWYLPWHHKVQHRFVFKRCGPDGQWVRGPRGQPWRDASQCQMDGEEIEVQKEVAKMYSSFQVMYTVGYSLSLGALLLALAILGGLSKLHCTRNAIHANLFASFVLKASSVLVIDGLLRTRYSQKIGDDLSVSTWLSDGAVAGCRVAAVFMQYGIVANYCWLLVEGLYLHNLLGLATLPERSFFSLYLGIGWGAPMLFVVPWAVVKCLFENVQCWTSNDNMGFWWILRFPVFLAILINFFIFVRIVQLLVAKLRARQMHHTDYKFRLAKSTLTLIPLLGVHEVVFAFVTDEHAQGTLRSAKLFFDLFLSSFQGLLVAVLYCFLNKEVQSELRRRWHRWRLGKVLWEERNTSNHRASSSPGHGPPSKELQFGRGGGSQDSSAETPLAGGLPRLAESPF
- test-method-notes: Functional cAMP activation in the presence of 0.1% casein (no HSA);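 also: intracellular cAMP rise after 30 min at 37 °C, read by HTRF against a cAMP standard curve, scaled from buffer only (0%) to maximal control ligand response (100%)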
- Format: cell-based
- test-context: read-out: Relative cAMP EC50, hGcgR
pEC50: −log10 of the molar value. Starred links: 1 amine or outer side, 2 acyl side, 3 side chain; linkers in the order of their positions; H or OH if unused. Non-standard residues stand in square brackets, D forms with d. Groups on a side chain read outwards from the residue. *: point of attachment. C18 diacid = O=C(O)CCCCCCCCCCCCCCCCC(=O)*; αMePhe(2-F) = C[C@](N)(Cc1ccccc1F)C(=O)O; γGlu = O=C(O)[C@H](CCC(=O)[*:2])N[*:1]; αMe4Pal = C[C@](N)(Cc1ccncc1)C(=O)O; αMeY = C[C@](N)(Cc1ccc(O)cc1)C(=O)O; 4Pal = N[C@@H](Cc1ccncc1)C(=O)O; αMeL = CC(C)C[C@](C)(N)C(=O)O; αMeS = C[C@](N)(CO)C(=O)O; Orn = NCCC[C@H](N)C(=O)O; AEEA = NCCOCCOCC(=O)O; Aib = CC(C)(N)C(=O)O
pEC50 overview

{"columns": ["substance", "pEC50"],
 "data": [
  ["H-Y[Aib]QGT[αMePhe(2-F)]TSD[4Pal][αMeS]I[αMeL]LD[Orn]K([AEEA-γGlu-C18 diacid])AA[Aib]EFI[dE][αMeY]LLEGGPSSGAPPPSGS-NH2 [Example 672]", 8.92],
  ["H-Y[Aib]QGT[αMePhe(2-F)]TSD[4Pal]SI[αMeL]LD[Orn]K([γGlu-γGlu-C18 diacid])AQ[αMe4Pal]EFI[dE][αMeY]LLEGGPSSGAPPPSGE-NH2 [Example 617]", 8.34],
  ["H-Y[Aib]QGT[αMePhe(2-F)]TSD[4Pal]SI[αMeL]LDKK([γGlu-γGlu-C18 diacid])AQ[Aib]AFIEYLEEGGPSSGEPPPSGEGE-NH2 [Example 625]", 8.07]
]}
